assay: Plasma pharmacokinetics of aficamten, M1a and M1b; assay type: in vivo, human; conditions: human, po, 20 mg, Cmax, single oral 20 mg, geometric mean (CV%)
Quantity Kind: Cmax (ng/mL)
Enter your answer as a number in ng/mL; do not include the unit.

Ask | Which Cmax value belongs to `CCc1nc(-c2ccc3c(c2)CC[C@H]3NC(=O)c2cnn(C)c2)no1` ?
Reply | 61.8

---

experiment: Urinary excretion of aficamten, M1a and M1b; type: in vivo; conditions: human, urine, oral, 20 mg, renal clearance (CLR), geometric mean
Quantity Kind: CL renal (mL/min)
Enter your answer as a number in mL/min; do not include the unit.

Ask | Which CL renal value belongs to `CCc1nc(-c2ccc3c(c2)CC[C@H]3NC(=O)c2cnn(C)c2)no1` ?
Reply | 0.0438

---

assay: Plasma pharmacokinetics of aficamten, M1a and M1b; format: in vivo, human; settings: human, po, 20 mg
Quantity Kind: Tmax (h)
Enter your answer as a number in h; do not include the unit.

Ask | Which Tmax value belongs to `CCc1nc(-c2ccc3c(c2)CC[C@H]3NC(=O)c2cnn(C)c2)no1` ?
Reply | 2

---

test: Plasma pharmacokinetics of aficamten, M1a and M1b; assay type: in vivo, human; conditions: human, po, 20 mg, AUC0‐inf, single oral 20 mg, geometric mean (CV%)
Quantity Kind: AUC (ng·h/mL)
Enter your answer as a number in ng·h/mL; do not include the unit.

Ask | Which AUC value belongs to CCc1nc(-c2ccc3c(c2)CC[C@H]3NC(=O)c2cnn(C)c2)no1 [Aficamten] ?
Reply | 4440

---

experiment: Plasma pharmacokinetics of aficamten, M1a and M1b; type: in vivo, human; settings: human, po, 20 mg, AUC0‐tlast, single oral 20 mg, geometric mean (CV%)
Quantity Kind: AUC (ng·h/mL)
Enter your answer as a number in ng·h/mL; do not include the unit.

Ask | Which AUC value belongs to `CCc1nc(-c2ccc3c(c2)CC[C@H]3NC(=O)c2cnn(C)c2)no1` ?
Reply | 4120
